This listing pairs molecules with measured IC50.
Target: human NaV1.8 (Homo sapiens, UniProt Q9Y5Y9)
Sequence (Q9Y5Y9 whole entry): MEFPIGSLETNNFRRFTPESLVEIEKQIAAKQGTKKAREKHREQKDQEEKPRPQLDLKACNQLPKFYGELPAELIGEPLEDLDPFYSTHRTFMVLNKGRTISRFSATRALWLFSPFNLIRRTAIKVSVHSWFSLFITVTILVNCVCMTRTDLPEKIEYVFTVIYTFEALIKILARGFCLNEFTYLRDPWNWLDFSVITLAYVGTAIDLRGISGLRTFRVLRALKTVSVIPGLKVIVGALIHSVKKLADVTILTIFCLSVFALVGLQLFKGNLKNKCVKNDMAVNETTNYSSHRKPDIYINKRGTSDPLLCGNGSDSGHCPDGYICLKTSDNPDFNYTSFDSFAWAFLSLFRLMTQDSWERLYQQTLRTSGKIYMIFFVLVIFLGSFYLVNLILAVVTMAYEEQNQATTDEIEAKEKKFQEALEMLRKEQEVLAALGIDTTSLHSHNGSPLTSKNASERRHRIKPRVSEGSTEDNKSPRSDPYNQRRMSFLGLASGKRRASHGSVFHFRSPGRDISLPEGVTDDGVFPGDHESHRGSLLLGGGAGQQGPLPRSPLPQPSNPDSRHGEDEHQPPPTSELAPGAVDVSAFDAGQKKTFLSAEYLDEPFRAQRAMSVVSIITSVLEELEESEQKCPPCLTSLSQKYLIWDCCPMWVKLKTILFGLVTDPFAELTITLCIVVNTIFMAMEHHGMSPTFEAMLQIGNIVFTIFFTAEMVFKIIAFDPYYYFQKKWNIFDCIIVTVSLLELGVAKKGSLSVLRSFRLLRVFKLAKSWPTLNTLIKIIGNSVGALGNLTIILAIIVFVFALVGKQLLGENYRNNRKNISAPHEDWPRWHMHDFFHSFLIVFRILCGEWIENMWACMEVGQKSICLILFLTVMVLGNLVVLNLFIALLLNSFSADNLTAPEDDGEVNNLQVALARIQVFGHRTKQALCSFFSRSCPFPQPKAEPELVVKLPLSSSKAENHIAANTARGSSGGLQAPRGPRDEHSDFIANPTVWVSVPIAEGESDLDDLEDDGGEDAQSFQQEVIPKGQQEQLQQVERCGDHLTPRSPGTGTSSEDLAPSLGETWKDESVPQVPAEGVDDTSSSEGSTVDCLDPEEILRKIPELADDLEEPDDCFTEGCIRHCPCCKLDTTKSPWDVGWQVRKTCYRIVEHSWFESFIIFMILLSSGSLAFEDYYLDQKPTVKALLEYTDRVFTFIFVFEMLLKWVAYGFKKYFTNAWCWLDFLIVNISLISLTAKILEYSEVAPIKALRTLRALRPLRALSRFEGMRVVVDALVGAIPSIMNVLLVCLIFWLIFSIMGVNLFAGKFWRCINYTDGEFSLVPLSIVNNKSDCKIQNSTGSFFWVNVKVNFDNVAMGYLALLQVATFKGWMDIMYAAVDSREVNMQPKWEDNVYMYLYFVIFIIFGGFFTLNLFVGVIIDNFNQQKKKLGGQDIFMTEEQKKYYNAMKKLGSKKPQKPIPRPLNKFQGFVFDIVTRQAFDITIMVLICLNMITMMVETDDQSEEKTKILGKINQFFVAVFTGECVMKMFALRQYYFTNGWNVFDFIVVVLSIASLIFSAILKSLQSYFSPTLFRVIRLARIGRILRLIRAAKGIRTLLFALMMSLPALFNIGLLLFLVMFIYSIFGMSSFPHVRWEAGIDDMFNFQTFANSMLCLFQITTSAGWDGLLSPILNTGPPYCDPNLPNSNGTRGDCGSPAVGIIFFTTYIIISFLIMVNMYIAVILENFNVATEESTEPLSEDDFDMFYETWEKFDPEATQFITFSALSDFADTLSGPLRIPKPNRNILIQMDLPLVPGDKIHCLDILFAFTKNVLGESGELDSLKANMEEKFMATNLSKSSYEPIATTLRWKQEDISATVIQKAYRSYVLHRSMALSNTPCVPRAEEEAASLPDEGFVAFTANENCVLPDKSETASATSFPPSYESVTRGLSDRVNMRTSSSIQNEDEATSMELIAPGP
Assay: Nav1.8 Qube® Assay (automated 384-well patch-clamp, inhibition of sodium current)
Details: human NaV1.8 channels stably expressed in HEK 293 cells, room temperature
Respond with the bare value in µM.

For orientation, consider the following solved cases.
| molecule | result-type | result |
| --- | --- | --- |
| C[C@@H]1C(=O)NCCN1C(=O)NC(c1ccc(F)c(Cl)c1)C1CCC(F)(F)CC1 (single isomer, unassigned) [Example 14B] | IC50 | 0.359 |
| C[C@@H]1C(=O)NCCN1C(=O)NC(c1ccc(F)c(Cl)c1)C1CC(OC(F)F)C1 (single isomer, unassigned) [Example 38A] | IC50 | 0.145 |
| C[C@@H]1C(=O)NCCN1C(=O)NC(c1ccc(OC(F)(F)F)c(Cl)c1)C1CC(C(F)(F)F)C1 (single isomer, unassigned) [Example 54B] | IC50 | 0.00418 |
| O=C1CN(C(=O)NC(c2ccc(F)c(C(F)(F)F)c2)[C@H]2C[C@H](C(F)(F)F)C2)CCN1 (single isomer, unassigned) [Example 52A] | IC50 | 0.32 |

Asked: Query: IC50; subject: C[C@@H]1C(=O)NCCN1C(=O)NC(c1ccc(Cl)c(C(F)(F)F)n1)C1CCC(F)(F)CC1 (single isomer, unassigned) [Example 46B]
Given back: 0.0237

Asked: For the molecule shown here, C[C@@H]1C(=O)NCCN1C(=O)NC(c1ccc(F)c(Cl)c1F)C1CC2(C1)CC2(F)F (single isomer, unassigned) [Example 22D] , give the reported IC50.
Given back: 0.0852

---

In this section, each of the molecules is paired with its reported IC50.
Target: human NaV1.8 (Homo sapiens, UniProt Q9Y5Y9)
Assay: Nav1.8 Qube® Assay (automated 384-well patch-clamp, inhibition of sodium current)
Conditions: human NaV1.8 channels stably expressed in HEK 293 cells, room temperature

| molecule | IC50 |
| --- | --- |
| C[C@@H]1C(=O)NCCN1C(=O)NC(c1ccc(F)c(Cl)c1F)C1CCC(F)(F)C1 (single isomer, unassigned) [Example 42D] | 20.1 nM |

Next up:
Asked: Which measured IC50 value corresponds to C[C@@H]1C(=O)NCCN1C(=O)NC(c1ccc(F)c(Cl)c1F)C1CC12CC2 (single isomer, unassigned) [Example 41C] ?
Given back: 143 nM

---

Target: UniProt Q9Y5Y9
Experiment: Nav1.8 Qube® Assay (automated 384-well patch-clamp, inhibition of sodium current)
Details: human NaV1.8 channels stably expressed in HEK 293 cells, room temperature
Description: Compounds were tested on human NaV1.8 and NaV1.5 channels stably expressed in human embryo kidney (HEK) 293 cells. […] For all Qube® experiments offline analysis was used to determine percent inhibition as a function of drug concentration. IC50 values were determined by fitting to the Hill equation.
result-type: pIC50
Lab note — pIC50 values are minus log10 of concentrations in M.

Past entries and their recorded results:
| molecule | pIC50 |
| --- | --- |
| C[C@@H]1C(=O)NCCN1C(=O)NC(c1ccc(F)c(Cl)c1)C1CC(OC(F)F)C1 (single isomer, unassigned) [Example 38C] | 7.06 |
| C[C@@H]1C(=O)NCCN1C(=O)NC(c1ccc(F)c(Cl)c1F)C1CCC(F)(F)C1 (single isomer, unassigned) [Example 42B] | 5.55 |
| C[C@@H]1C(=O)NCCN1C(=O)NC(C)(c1ccc(F)c(Cl)c1)C1CC(C(F)(F)F)C1 (single isomer, unassigned) [Example 48C] | 6.51 |
| C[C@@H]1C(=O)NCCN1C(=O)NC(c1ccc(F)c(Cl)c1F)[C@@H]1C[C@@H]2[C@H](C1)C2(F)F (single isomer, unassigned) [Example 11B] | 8.38 |
| Cc1cc(C(NC(=O)N2CCNC(=O)[C@H]2C)C2CCC(C(F)(F)F)CC2)ccc1F (single isomer, unassigned) [Example 36A] | 7.25 |
| C=C1CC(C(NC(=O)N2CCNC(=O)[C@H]2C)c2ccc(F)c(Cl)c2F)C1 (single isomer, unassigned) [Example 25A] | 7.98 |

Asked: Query: pIC50; subject: C[C@@H]1C(=O)NCCN1C(=O)NC(c1ccc(F)c(Cl)c1)C12CC(C(F)(F)F)(C1)C2 (single isomer, unassigned) [Example 35B]
Given back: 7.31

Asked: Request the reported pIC50 associated with C[C@@H]1C(=O)NCCN1C(=O)NC(c1ccc(F)c(Cl)c1)C1CC2CCC(C1)C2(F)F (single isomer, unassigned) [Example 3A]
Given back: 7.83

Asked: So what's the measured pIC50 for this one? C[C@@H]1C(=O)NCCN1C(=O)NC(c1ccc(F)c(Cl)c1F)C1CC2(CC2)C1 (single isomer, unassigned) [Example 28B]
Given back: 6.72

Asked: Request the reported pIC50 associated with C[C@@H]1C(=O)NCCN1C(=O)NC(c1ccc(F)c(Cl)c1)C1CC(OCC(F)(F)F)C1 (single isomer, unassigned) [Example 44C]
Given back: 6.76

Asked: Look at this molecule and give its reported pIC50. O=C1CN(C(=O)NC(c2ccc(F)c(Cl)c2)C23CC(C(F)(F)F)(C2)C3)CCN1 (single isomer, unassigned) [Example 34A]
Given back: 6.22

Asked: Any idea what its pIC50 is? The molecule is CC(N1CCC(C(NC(=O)N2CCNC(=O)[C@H]2C)c2ccc(F)c(Cl)c2)CC1)C(F)(F)F (single isomer, unassigned) [Example 18B]
Given back: 8.16

Asked: Given the molecule C[C@@H]1C(=O)NCCN1C(=O)NC(c1ccc(F)c(Cl)c1F)C1CC12CC2 (single isomer, unassigned) [Example 41A] , what is its reported pIC50?
Given back: 7.50

---

Target: human NaV1.8 (Homo sapiens)
Assay: Nav1.8 Qube® Assay (automated 384-well patch-clamp, inhibition of sodium current)
Settings: human NaV1.8 channels stably expressed in HEK 293 cells, room temperature
Recorded pIC50, one value per entry.
Reminder that pIC50 is minus the log10 of a molar concentration.

| compound | pIC50 |
| --- | --- |
| C[C@@H]1C(=O)NCCN1C(=O)NC(c1ccc(Cl)c(C(F)(F)F)n1)C1CC(C(F)(F)F)C1 (single isomer, unassigned) [Example 47D] | 7.44 |
| O=C1CN(C(=O)NC(c2ccc(F)c(C(F)(F)F)c2)[C@H]2C[C@H](C(F)(F)F)C2)CCN1 (single isomer, unassigned) [Example 52B] | 7.93 |
| C[C@@H]1C(=O)NCCN1C(=O)NC(c1ccc(F)c(Cl)c1F)C1CC(C)(C)C1 (single isomer, unassigned) [Example 31B] | 7.15 |
| C[C@@H]1C(=O)NCCN1C(=O)NC(c1ccc(Cl)c(C(F)F)c1)C1CCC(C(F)(F)F)CC1 (single isomer, unassigned) [Example 37D] | 8.70 |
| C[C@@H]1C(=O)NCCN1C(=O)NC(c1ccc(F)c(Cl)c1)C1CCC2(CC1)CC2(F)F (single isomer, unassigned) [Example 19D] | 8.00 |

Asked: Write down the reported pIC50 of [2H][C@@]1(CF)C(=O)NCCN1C(=O)N[C@H](c1ccc(F)c(Cl)c1F)[C@H]1C[C@H](C(F)(F)F)C1 [Example 61] , test system: human NaV1.8 (Homo sapiens).
Given back: 9.15

Asked: Request: pIC50, test system human NaV1.8 (Homo sapiens), entry C[C@@H]1C(=O)NCCN1C(=O)NC(c1ccc(F)c(Cl)c1F)C1CC(C)(C)C1 (single isomer, unassigned) [Example 31A]
Given back: 9.13

Asked: Provide the documented pIC50 with human NaV1.8 (Homo sapiens) as the system for C[C@@H]1C(=O)NCCN1C(=O)NC(c1ccc(F)c(Cl)c1)C1CC(OCC(F)(F)F)C1 (single isomer, unassigned) [Example 44D]
Given back: 7.64

Asked: For the record C[C@@H]1C(=O)NCCN1C(=O)NC(c1ccc(F)c(F)c1)[C@H]1CC[C@H](C(F)(F)F)CC1 (single isomer, unassigned) [Example 8B] , what value of pIC50 is listed for human NaV1.8 (Homo sapiens)?
Given back: 7.88

Asked: Notebook entry, human NaV1.8 (Homo sapiens) assay: pIC50 of C[C@@H]1C(=O)NCCN1C(=O)NC(c1ccc(OC(F)(F)F)cc1F)[C@H]1C[C@H](C(F)(F)F)C1 (single isomer, unassigned) [Example 50A] = ?
Given back: 6.41

Asked: Give the reported pIC50 for O=C1CN(C(=O)NC(c2ccc(F)c(Cl)c2)C2CCN(CC(F)(F)F)CC2)CCN1 (single isomer, unassigned) [Example 17A] (system: human NaV1.8 (Homo sapiens)).
Given back: 5.79

Asked: Give the reported pIC50 for C[C@@H]1C(=O)NCCN1C(=O)NC(c1ccc(Cl)cc1)C1CCN(CC(F)(F)F)CC1 (single isomer, unassigned) [Example 16B] (system: human NaV1.8 (Homo sapiens)).
Given back: 6.03
